molecular target: UniProtKB P08684; assay: Inhibition of CYP3A4 (unknown origin) in absence of NADPH; format: ADME
Sequence (P08684 whole entry): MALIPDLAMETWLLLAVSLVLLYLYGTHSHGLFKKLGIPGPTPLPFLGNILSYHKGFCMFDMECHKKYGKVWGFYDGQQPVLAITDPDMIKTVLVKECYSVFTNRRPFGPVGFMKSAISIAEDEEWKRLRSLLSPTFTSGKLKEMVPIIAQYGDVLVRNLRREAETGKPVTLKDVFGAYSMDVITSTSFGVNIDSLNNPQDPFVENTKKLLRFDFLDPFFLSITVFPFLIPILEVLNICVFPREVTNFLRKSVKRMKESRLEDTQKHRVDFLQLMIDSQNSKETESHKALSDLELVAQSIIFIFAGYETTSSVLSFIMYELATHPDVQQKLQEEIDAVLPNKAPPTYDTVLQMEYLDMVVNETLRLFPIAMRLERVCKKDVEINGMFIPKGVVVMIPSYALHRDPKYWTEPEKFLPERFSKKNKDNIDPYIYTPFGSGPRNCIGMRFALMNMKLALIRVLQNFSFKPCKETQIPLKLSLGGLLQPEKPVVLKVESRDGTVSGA
property label: IC50

# chemical string, property label, experimental result
records = [
    ("COc1cc(Nc2ncc(C)c(Nc3ccc4oc(=O)[nH]c4c3)n2)cc(C(F)(F)F)c1", "IC50", "7.2 µM"),
    ("COc1cc(Nc2ncc(C)c(Nc3ccc4oc(=O)[nH]c4c3)n2)cc(C(F)F)c1", "IC50", "> 10 µM"),
    ("COc1ccc(Nc2ncc(C)c(Nc3ccc4oc(=O)[nH]c4c3)n2)cc1C(F)(F)F", "IC50", "4.8 µM"),
    ("COc1cc(Nc2ncc(C)c(Nc3ccc4oc(=O)[nH]c4c3)n2)cc(OC)c1OC", "IC50", "> 10 µM"),
    ("COc1cc(Nc2ncc(C)c(Nc3ccc4oc(=O)[nH]c4c3)n2)cc(C)c1F", "IC50", "> 10 µM"),
    ("COc1cc(CF)cc(Nc2ncc(C)c(Nc3ccc4oc(=O)[nH]c4c3)n2)c1", "IC50", "> 10 µM"),
]

Fill in the blank: the reported IC50 of `COc1cc(Nc2ncc(C)c(Nc3ccc4oc(=O)[nH]c4c3)n2)cc(C)c1OC` is ____.
> 10 µM

Fill in the blank: the reported IC50 of `COc1cc(Nc2ncc(C)c(Nc3ccc4oc(=O)[nH]c4c3)n2)cc(C)c1C` is ____.
> 10 µM

Fill in the blank: the reported IC50 of `COc1cc(C)cc(Nc2ncc(C)c(Nc3ccc4oc(=O)[nH]c4c3)n2)c1` is ____.
> 10 µM

Fill in the blank: the reported IC50 of `Cc1cnc(Nc2ccc(N3CCN(C)CC3)nc2)nc1Nc1ccc2oc(=O)[nH]c2c1` is ____.
> 10 µM

Fill in the blank: the reported IC50 of `Cc1cnc(Nc2ccc(F)c(C(F)(F)F)c2)nc1Nc1ccc2oc(=O)[nH]c2c1` is ____.
> 10 µM

---

molecular target: UniProt P29597; assay: Inhibition of human recombinant N-terminal GST-tagged TYK2 (833 to 1187 residues) expressed in baculovirus expression system by Z'-lyte assay
Sequence (P29597 whole entry, the tested form may be a part): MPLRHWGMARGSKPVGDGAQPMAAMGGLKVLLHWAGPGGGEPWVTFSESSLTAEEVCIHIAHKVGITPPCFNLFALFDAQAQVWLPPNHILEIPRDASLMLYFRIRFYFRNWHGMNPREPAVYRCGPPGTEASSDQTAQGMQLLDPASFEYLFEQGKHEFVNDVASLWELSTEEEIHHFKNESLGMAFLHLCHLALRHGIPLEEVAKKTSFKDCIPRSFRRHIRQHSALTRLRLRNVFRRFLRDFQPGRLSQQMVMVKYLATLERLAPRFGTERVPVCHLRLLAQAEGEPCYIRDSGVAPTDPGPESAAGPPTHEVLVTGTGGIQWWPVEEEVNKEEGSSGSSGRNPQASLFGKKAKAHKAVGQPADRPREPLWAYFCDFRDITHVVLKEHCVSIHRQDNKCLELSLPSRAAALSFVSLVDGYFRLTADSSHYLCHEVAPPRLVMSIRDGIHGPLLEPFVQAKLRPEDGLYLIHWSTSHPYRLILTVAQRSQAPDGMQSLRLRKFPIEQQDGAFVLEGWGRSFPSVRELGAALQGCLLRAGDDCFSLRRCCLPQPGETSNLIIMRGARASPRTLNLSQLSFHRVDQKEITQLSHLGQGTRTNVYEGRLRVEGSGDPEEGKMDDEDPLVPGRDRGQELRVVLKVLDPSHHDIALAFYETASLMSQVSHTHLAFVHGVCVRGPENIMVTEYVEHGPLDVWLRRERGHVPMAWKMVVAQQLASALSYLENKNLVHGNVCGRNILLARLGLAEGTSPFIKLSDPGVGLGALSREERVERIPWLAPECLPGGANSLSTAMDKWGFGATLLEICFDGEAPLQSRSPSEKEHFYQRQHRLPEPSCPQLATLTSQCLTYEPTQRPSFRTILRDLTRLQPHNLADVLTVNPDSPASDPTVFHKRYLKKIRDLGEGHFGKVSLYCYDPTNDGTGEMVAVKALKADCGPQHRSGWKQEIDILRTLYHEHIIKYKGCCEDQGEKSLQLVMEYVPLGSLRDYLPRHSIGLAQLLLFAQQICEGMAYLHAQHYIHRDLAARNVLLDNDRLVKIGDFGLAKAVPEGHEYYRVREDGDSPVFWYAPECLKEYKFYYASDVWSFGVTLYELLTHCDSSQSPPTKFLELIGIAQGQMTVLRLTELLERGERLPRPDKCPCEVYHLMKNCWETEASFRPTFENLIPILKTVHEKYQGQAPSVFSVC
property label: IC50 (nM)
Supply the numeric figure in nM, leaving out any unit text.

Fill in the blank: the reported IC50 of `COc1cc(Nc2ncc(C)c(Nc3ccc4oc(=O)[nH]c4c3)n2)cc(C)c1F` is ____.
12
